Test system: cAMP-dependent protein kinase (PKA)
Test: Test for 3',5'-cAMP-dependent protein kinase inhibition (PKA catalytic subunit, Kemptide substrate)
Assay type: biochemical
Conditions: 40 μM ATP, 15' at 30° C.
Please go through the items and note down their PKA % inhib. at 40 μg/ml.
One number for each entry, in %.

Oc1ccc(O)c(C=NN2CCCCCC2)c1
0
O=S(=O)([O-])c1cc(O)ccc1O.[K+]
1
Oc1ccccc1O
0
CN=Cc1cc(O)ccc1O [Ex. 2, 2,5-Dihydroxy-N-methylbenzaldimine]
0
CC(C)(C)c1cc(O)ccc1O [2-tert-Butylhydroquinone]
22

GET /values?readout=PKA % inhib. at 40 μg/ml&item= O=C1C=CC(=O)C=C1.Oc1ccc(O)cc1 [Quinhydrone]
0

---

Target: EGF receptor tyrosine kinase (EGFRTK) (Homo sapiens)
Construct: This cell line expresses a large number of EGF receptors which have tyrosine kinase activity on the cell surface; endogenous in cells; host or cells: A 431 (ATCC CRL 1555), membrane preparation
Sequence (P00533 25-1210): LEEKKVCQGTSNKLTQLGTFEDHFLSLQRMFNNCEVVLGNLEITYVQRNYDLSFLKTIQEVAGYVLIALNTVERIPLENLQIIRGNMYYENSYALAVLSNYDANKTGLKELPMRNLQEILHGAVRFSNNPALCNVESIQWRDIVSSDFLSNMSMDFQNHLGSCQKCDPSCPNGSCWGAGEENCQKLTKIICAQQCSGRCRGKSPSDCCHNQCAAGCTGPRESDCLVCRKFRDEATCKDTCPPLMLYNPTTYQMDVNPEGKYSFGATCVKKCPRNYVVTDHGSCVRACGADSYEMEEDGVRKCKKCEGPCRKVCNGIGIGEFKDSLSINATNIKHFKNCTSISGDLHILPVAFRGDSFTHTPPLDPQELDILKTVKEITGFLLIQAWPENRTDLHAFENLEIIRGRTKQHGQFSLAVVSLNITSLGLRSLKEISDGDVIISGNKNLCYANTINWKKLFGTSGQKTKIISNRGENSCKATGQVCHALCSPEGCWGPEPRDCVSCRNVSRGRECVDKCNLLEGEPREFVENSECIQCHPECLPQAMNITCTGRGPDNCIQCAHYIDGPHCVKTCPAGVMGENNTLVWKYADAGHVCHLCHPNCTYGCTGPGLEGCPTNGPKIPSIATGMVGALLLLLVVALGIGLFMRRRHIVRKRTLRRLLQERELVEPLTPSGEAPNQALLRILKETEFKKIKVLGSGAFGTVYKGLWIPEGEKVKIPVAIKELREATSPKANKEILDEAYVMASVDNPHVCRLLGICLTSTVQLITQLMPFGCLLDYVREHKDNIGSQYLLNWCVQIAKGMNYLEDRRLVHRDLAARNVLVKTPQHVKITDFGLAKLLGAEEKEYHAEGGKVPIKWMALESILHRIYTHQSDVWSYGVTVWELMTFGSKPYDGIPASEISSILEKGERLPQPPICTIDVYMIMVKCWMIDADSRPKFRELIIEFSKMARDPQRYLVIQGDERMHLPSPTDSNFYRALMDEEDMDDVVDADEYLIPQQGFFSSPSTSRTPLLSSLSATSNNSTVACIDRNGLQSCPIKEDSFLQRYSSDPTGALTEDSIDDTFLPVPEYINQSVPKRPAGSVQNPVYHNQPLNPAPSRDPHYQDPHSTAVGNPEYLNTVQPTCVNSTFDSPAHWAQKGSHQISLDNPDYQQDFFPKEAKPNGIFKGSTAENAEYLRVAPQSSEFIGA
Assay: biochemical
REPORTED ENDPOINT: IC50 (µM)
One number for each entry, in µM.

Examples with their reported IC50 follow.
Oc1ccc(O)c2ccccc12
9.36
Oc1ccccc1O
14.5
O=C1C=CC(=O)C=C1
0.463

Here are 4 compounds. What values of IC50 were reported for them?
1. O=C1C=CC(=O)C(Cl)=C1
2. Oc1ccc(O)c(Cl)c1 [2-Chlorohydroquinone]
3. COC(=O)[C@H](Cc1c[nH]cn1)N=Cc1cc(O)ccc1O
4. O=C1C=CC(=O)c2ccccc21

[9.68, 13.1, 43.7, 1.26]

---

Target: EGF receptor tyrosine kinase (EGFRTK) (Homo sapiens)
Construct: This cell line expresses a large number of EGF receptors which have tyrosine kinase activity on the cell surface; endogenous in cells; host or cells: A 431 (ATCC CRL 1555), membrane preparation
Assay: biochemical
Details: A 431 membranes; 1000 nM EGF; 32 μM ATP; 15' at 30° C.; max. 51 μg/ml; read-out: EGFRTK IC50 (converted)
REPORTED ENDPOINT: IC50 (µM)
Numbers only, in µM.

Oc1ccc(O)c(C=NN2CCCCCC2)c1
17.4
Cc1cc(O)ccc1O [2-Methylhydroquinone]
8.86
Oc1ccc(O)cc1 [Hydroquinone]
0.908
CN(C)N=Cc1cc(O)ccc1O
7.66
CN=Cc1cc(O)ccc1O [Ex. 2, 2,5-Dihydroxy-N-methylbenzaldimine]
13.1

Would you mind listing IC50 for each of the following compounds?
1. Oc1ccc(O)c(C=Nc2ccccc2)c1 [2,5-Dihydroxy-N-phenylbenzaldimine]
2. CCCCCCN=Cc1cc(O)ccc1O [Ex. 6, N-Hexyl-2,5-dihydroxybenzaldimine]
3. CCN=Cc1cc(O)ccc1O [Ex. 7, N-Ethyl-2,5-hydroxybenzaldimine]
4. CC(C)N=Cc1cc(O)ccc1O [Ex. 8, 2,5-Dihydroxy-N-isopropylbenzaldimine]
5. CC(C)(C)c1cc(O)ccc1O [2-tert-Butylhydroquinone]
6. Oc1ccc(O)c(C=NN2CCCCC2)c1 [Ex. 10, 2,5-Dihydroxy-N-piperidinobenzaldimine]
7. Cc1c(O)ccc(O)c1C [2,3-Dimethylhydroquinone]

1. 89.3
2. 95.6
3. 74.2
4. 46.3
5. 5.72
6. 47.7
7. 4.64

Report IC50 for every entry below.
1. Oc1ccc(O)c(C=NN2CCOCC2)c1 [Ex. 11, 2,5-Dihydroxy-N-morpholinobenzaldimine]
2. O=S(=O)([O-])c1cc(O)ccc1O.[K+]
3. Cc1cc(O)c2ccccc2c1O
4. O=C(O)c1cccc(N=Cc2cc(O)ccc2O)c1
5. O=C(O)c1ccc(N=Cc2cc(O)ccc2O)cc1
6. Oc1ccc(O)c(O)c1 [1,2,4-Trihydroxybenzene]
7. O=C1C=CC(=O)c2cc3ccccc3cc21
8. O=C(O)c1ccc(NCc2cc(O)ccc2O)cc1

1: 12.5; 2: 8.06; 3: 150; 4: 77.9; 5: 67.5; 6: 190; 7: 2.79; 8: 17.8

So what's the measured IC50 for this one? Oc1ccc(O)c(C=NCc2ccccc2)c1 [Ex. 3, N-Benzyl-2,5-dihydroxybenzaldimine]
7.48

---

System: cAMP-dependent protein kinase (PKA)
Experiment: Test for 3',5'-cAMP-dependent protein kinase inhibition (PKA catalytic subunit, Kemptide substrate)
Type: biochemical
Settings: 40 μM ATP, 15' at 30° C.
Procedure: Test for 3',5'-cAMP-dependent protein kinase inhibition The catalytic subunit of the cAMP-dependent protein kinase (PKA) (Sigma) was reconstituted as described by Sigma (Sigma Chemical Co., St. Louis, Mo. USA). The enzyme activity was measured using Kemptide (Sigma) (Leu-Arg-Arg-Ala-Ser-Leu-Gly) as a substrate. […]
Provide the reported PKA % inhib. at 40 μg/ml of each item.
Answers are plain numbers, in %.

O=C1C=CC(=O)C(Cl)=C1 [2-Chlorobenzoquinone]
29
Cc1cc(O)ccc1O [2-Methylhydroquinone]
46
Oc1ccc(O)c(C=NN2CCOCC2)c1 [Ex. 11, 2,5-Dihydroxy-N-morpholinobenzaldimine]
0

Field: PKA % inhib. at 40 μg/ml. Fill in for each record below.
1. O=C(O)c1cc(N=Cc2cc(O)ccc2O)ccc1O
2. CCN=Cc1cc(O)ccc1O [Ex. 7, N-Ethyl-2,5-hydroxybenzaldimine]

1: 0; 2: 0

State recorded PKA % inhib. at 40 μg/ml for all listed molecules.
1. O=C(O)c1ccc(NCc2cc(O)ccc2O)cc1
2. Oc1ccc(O)c(C=NCc2ccccc2)c1 [Ex. 3, N-Benzyl-2,5-dihydroxybenzaldimine]
3. Oc1ccc(O)c(Cl)c1 [2-Chlorohydroquinone]
4. CC(C)N=Cc1cc(O)ccc1O [Ex. 8, 2,5-Dihydroxy-N-isopropylbenzaldimine]
5. Oc1ccc(O)c(C=NC2CCCCC2)c1 [N-Cyclohexyl-2,5-dihydroxybenzaldimine]
6. Oc1ccc(O)c(C=NN2CCCCC2)c1 [Ex. 10, 2,5-Dihydroxy-N-piperidinobenzaldimine]
7. O=C(O)c1ccc(N=Cc2cc(O)ccc2O)cc1 [Ex. 1]

1. 61
2. 0
3. 0
4. 0
5. 61
6. 0
7. 0

---

Tested on: cAMP-dependent protein kinase (PKA)
Test: Test for 3',5'-cAMP-dependent protein kinase inhibition (PKA catalytic subunit, Kemptide substrate)
Assay type: biochemical
Conditions: 40 μM ATP, 15' at 30° C.
REPORTED ENDPOINT: PKA % inhib. at 40 μg/ml (%)
One number for each entry, in %.

Here's what some known entries look like.
CN(C)N=Cc1cc(O)ccc1O [Ex. 4]
63
Oc1ccc(O)c(-c2ccccc2)c1 [2-Phenylhydroquinone]
25
Oc1ccc(O)c2ccccc12 [1,4-Naphthodiol]
76
Cc1c(O)ccc(O)c1C [2,3-Dimethylhydroquinone]
71
O=C1C=CC(=O)C=C1 [Benzoquinone]
45
COC(=O)[C@H](Cc1c[nH]cn1)N=Cc1cc(O)ccc1O [Ex. 5]
0
CN1CCN(N=Cc2cc(O)ccc2O)CC1 [Ex. 12]
0
Cc1cc(O)c2ccccc2c1O [Menadiol]
0
Oc1ccc(O)c(O)c1 [1,2,4-Trihydroxybenzene]
0
O=C(O)c1cccc(N=Cc2cc(O)ccc2O)c1
0

Please turn your attention to the following entry.
Please look up its PKA % inhib. at 40 μg/ml: CCCCCCN=Cc1cc(O)ccc1O [Ex. 6, N-Hexyl-2,5-dihydroxybenzaldimine]
0

Hello, the source for this data is patent US5519018A, in case you need it.
